biological target: PepT1 (Oryctolagus cuniculus); experiment: Uptake of [3H]-D-Phe-L-Gln in oocytes in competition with test compound (binding to PepT1); conditions: competition with 0.4 μM [3H]-D-Phe-L-Gln, oocytes, pH 5.5, one hour
Sequence (P36836 whole entry): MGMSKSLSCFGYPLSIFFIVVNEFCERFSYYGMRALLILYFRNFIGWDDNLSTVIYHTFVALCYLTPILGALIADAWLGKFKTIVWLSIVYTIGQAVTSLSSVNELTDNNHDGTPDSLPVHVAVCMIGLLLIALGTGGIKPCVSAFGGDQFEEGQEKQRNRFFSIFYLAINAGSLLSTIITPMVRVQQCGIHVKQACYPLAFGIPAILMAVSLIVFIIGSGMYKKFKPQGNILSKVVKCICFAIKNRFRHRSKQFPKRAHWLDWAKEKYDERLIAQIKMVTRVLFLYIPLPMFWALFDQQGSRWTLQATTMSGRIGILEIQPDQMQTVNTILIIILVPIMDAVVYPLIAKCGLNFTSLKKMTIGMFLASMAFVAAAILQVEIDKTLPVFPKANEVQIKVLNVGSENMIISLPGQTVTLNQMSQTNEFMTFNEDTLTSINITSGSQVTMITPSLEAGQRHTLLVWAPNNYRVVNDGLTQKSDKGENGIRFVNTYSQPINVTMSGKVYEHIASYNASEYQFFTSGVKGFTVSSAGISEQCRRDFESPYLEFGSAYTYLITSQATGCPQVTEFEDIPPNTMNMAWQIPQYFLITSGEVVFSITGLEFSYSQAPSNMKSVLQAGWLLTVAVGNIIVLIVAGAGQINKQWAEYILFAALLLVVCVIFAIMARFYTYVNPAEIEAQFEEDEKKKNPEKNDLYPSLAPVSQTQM
recorded metric: pKi
// pKi: -log10(molar conc.)

Ask: Tell us which pKi value is on record for CC(N)C(=S)NC(COCc1ccccc1)C(=O)O [D-Ala-ΨS-Ser(OBn)]
Result: 2.97

From: patent US8772248B2
